Target: Progesterone receptor (Homo sapiens, UniProt P06401)
Sequence (P06401 whole entry): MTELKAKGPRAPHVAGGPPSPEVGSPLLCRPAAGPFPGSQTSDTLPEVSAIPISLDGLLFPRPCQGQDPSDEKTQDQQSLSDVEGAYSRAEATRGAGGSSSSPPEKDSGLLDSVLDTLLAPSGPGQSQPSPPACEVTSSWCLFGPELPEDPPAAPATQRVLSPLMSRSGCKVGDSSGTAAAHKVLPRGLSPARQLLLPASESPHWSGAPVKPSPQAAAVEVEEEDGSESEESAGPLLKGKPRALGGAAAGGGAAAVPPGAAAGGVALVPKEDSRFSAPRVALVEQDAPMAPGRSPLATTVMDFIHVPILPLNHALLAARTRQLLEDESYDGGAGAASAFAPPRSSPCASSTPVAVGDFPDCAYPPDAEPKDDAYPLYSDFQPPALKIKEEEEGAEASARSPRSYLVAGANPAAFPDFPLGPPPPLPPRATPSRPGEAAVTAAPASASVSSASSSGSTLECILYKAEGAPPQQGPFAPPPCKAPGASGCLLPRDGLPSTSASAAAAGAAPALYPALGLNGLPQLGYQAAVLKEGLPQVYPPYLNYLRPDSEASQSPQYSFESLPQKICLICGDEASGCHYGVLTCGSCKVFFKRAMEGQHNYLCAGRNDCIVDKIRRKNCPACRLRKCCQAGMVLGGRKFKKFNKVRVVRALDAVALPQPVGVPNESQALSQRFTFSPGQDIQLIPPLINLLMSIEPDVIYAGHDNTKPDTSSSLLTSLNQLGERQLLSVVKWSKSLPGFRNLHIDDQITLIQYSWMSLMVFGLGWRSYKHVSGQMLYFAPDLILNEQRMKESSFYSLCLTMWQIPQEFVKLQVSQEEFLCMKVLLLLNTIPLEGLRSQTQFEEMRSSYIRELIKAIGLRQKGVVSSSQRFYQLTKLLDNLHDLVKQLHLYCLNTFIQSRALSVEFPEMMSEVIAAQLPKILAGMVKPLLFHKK
Assay: Inhibition of progesterone receptor in human T47D cells assessed as progesteron-induced alkaline phosphatase activity
Format: cell-based
Each entry falls in a class defined on IC50; the bands are low value (below 0.02 µM), medium value (0.02 µM to below 0.2 µM), high value (0.2 µM or more)

For orientation, consider the following solved cases.
| molecule | class |
| --- | --- |
| CC1CC(O)c2ccc(-c3ccc(C#N)n3C)cc21 (configuration not stated) | low value |
| Cn1c(C#N)ccc1-c1ccc2c(c1)CCC2=O | medium value |

Field: class (IC50) — entry: `CC1(C)CC(=O)c2ccc(-c3ccc(Cl)c(Cl)c3)cc21`
medium value

Proceed to `CC1(C)C/C(=N\O)c2ccc(-c3cccc(Cl)c3)cc21`
high value

###

Molecular target: Progesterone receptor (Homo sapiens, UniProt P06401)
Test: Agonist activity at progesterone receptor in human T47D cells assessed as alkaline phosphatase activity
resultType: EC50

Below, each entry is followed by its recorded EC50 result.
| compound | EC50 |
| --- | --- |
| Cn1c(C#N)ccc1-c1ccc2c(c1)CC/C2=N/O | > 3 µM |
| Cn1c(C#N)ccc1-c1ccc2c(c1)C(C)(C)CC2O (stereo not given) | 0.019 µM |
| CC1CC(O)c2ccc(-c3ccc(C#N)n3C)cc21 (stereo not given) | > 3 µM |
| CCC1(O)CC(C)(C)c2cc(-c3ccc(C#N)n3C)ccc21 (stereo not given) | 0.002 µM |
| Cn1c(C#N)ccc1-c1ccc2c(c1)C(C)(C)C/C2=N/O | > 3 µM |

Please provide the recorded EC50 for `Cn1c(C#N)ccc1-c1ccc2c(c1)CCC2=O` , tested on Progesterone receptor (Homo sapiens, UniProt P06401).
> 3 µM

What about this compound? C#CCC1(O)CC(C)(C)c2cc(-c3ccc(C#N)n3C)ccc21 (stereo not given)
> 3 µM

// repeat for CC1C/C(=N/O)c2ccc(-c3ccc(C#N)n3C)cc21 (stereo not given) and report
> 3 µM

Now give it for Cn1c(C#N)ccc1-c1ccc2c(c1)C(C)(C)CC2(C)O (stereo not given) too.
0.001 µM

// query: Cn1c(C#N)ccc1-c1ccc2c(c1)CCC2O (stereo not given)
> 3 µM

###

Target: Progesterone receptor (Homo sapiens, UniProt P06401)
Assay: Inhibition of progesterone receptor in human T47D cells assessed as progesteron-induced alkaline phosphatase activity
resultType: pIC50
Lab note: report pIC50 as minus log10 of the concentration in molar units, number only.

| molecule | endpointValue |
| --- | --- |
| CC1(C)CC(=O)c2ccc(-c3cccc(C#N)c3)cc21 | 6.71 |
| Cn1c(C#N)ccc1-c1ccc2c(c1)C(C)(C)C/C2=N/O | 7.85 |
| Cc1cccc(-c2ccc3c(c2)C(C)(C)C/C3=N\O)c1 | 6.50 |

Provide the documented pIC50 with Progesterone receptor (Homo sapiens, UniProt P06401) as the system for CC1C/C(=N/O)c2ccc(-c3ccc(C#N)n3C)cc21 (stereo not drawn)
7.19

Then what about the molecule Cn1c(C#N)ccc1-c1ccc2c(c1)CCC2O (stereo not drawn) ?
8.00

Now the same for `Cn1c(C#N)ccc1-c1ccc2c(c1)CC/C2=N/O`
6.88

Next molecule: C#CCC1(O)CC(C)(C)c2cc(-c3ccc(C#N)n3C)ccc21 (stereo not drawn)
8.52

Also need `CC1(C)C/C(=N\O)c2ccc(-c3cccc(C#N)c3)cc21` , thanks.
6.50

Provenance of the data: ChEMBL document CHEMBL1154669
